Cited source for all entries: PubChem BioAssay (NCATS)

assay: Viability qHTS for spleen associated tyrosine kinase inhibitor (SYKi) drug resistant MV4-11 cells (AID 1963824); settings: SYKi-resistant MV4-11 viability, CellTiter-Glo, 72 h; series mostly up to 45 µM; further: nearly all actives have a fitted effect of over 35% in size
Results filed as inconclusive are left out. Calls of active or inactive are those of the source. The call rests on the fitted dose curve; in most records, active means well fitted cell-killing curve with a large enough effect; inconclusive means small, poorly fitted or top-dose-only effect, or effect the other way; inactive means no such curve, though single readings can be large or run the other way.
Result category, one only: active, inactive

Prompt: For this compound, state the assay outcome: O=c1[nH]ccc2c(S(=O)(=O)N3CCCNCC3)cccc12
Completion: inactive

Prompt: I would be grateful if you could indicate the recorded call for CCN(CC)CCNC(=O)c1ccc(NC(C)=O)cc1 .
Completion: inactive

Prompt: What is the recorded call for this compound in the test? C=C[C@@]1(C)CCC2=C([C@H]1OC(C)=O)[C@H](OC(C)=O)CC1[C@](C)(C(=O)OC)CC[C@H](OC(C)=O)[C@]21C (some centres not stated)
Completion: inactive

Prompt: Answer briefly: the call reported for C[C@@H]1CC(=O)NN=C1c1ccc(NN=C(C#N)C#N)cc1 in this assay.
Completion: active

Prompt: Which outcome was entered for the compound C=CC(=O)Nc1cc2c(Nc3ccc(F)c(Cl)c3)ncnc2cc1C#CC(C)(C)N1CCN(C)CC1 in this test?
Completion: active

Prompt: Just curious, what result did O=C(/C=C/c1ccccc1)OC[C@]12O[C@H]1[C@@H](O)[C@@H]1C=CO[C@@H](O[C@@H]3O[C@H](CO)[C@@H](O)[C@H](O)[C@H]3O)[C@@H]12 get here?
Completion: inactive

Prompt: Identify the outcome logged in this assay for the compound shown: C=C1CCC2(OC1)OC1CC3C4CC=C5CC(O)CC(O[C@@H]6OC[C@@H](O)[C@H](O)[C@H]6O)C5(C)C4CCC3(C)C1(O)C2C (some centres not stated)
Completion: inactive

Prompt: // outcome(item) with item = Cn1cc(C2=C(c3cn(C)c4cc([N+](=O)[O-])ccc34)C(=O)NC2=O)c2ccccc21
Completion: active

Prompt: Which outcome was entered for the compound CC(C)=CCC/C(C)=C/CC/C(C)=C/CC[C@]1(C)CCc2cc(O)cc(C)c2O1 in this test?
Completion: inactive

Prompt: Hi, sorry to bother you, what did the test record for CO[C@H]1C[C@@H]2CC[C@@H](C)[C@@](O)(O2)C(=O)C(=O)N2CCCC[C@H]2C(=O)O[C@H]([C@H](C)C[C@@H]2CC[C@@H](OCCO)[C@H](OC)C2)CC(=O)[C@H](C)/C=C(/C)[C@@H](O)[C@@H](OC)C(=O)[C@H](C)C[C@H](C)/C=C\C=CC=C1C ?
Completion: active

Prompt: What did this assay record as the result for CC(C)(C)NCC(O)c1ccc(O)c(CO)c1 (configuration not stated) ?
Completion: inactive

Prompt: Outcome logged for C#CCN[C@@H]1CCc2ccccc21 in this assay:
Completion: inactive

Prompt: GET /call?item= Nc1nc2c(nc(Sc3ccc(Cl)cc3)n2[C@@H]2O[C@@H]3COP(=O)(O)O[C@H]3[C@H]2O)c(=O)[nH]1 returns the recorded outcome of this test.
Completion: inactive

Prompt: Dear colleague, could you share the recorded outcome for COC(=O)/C=C\C(=O)OC when you have a moment?
Completion: inactive

Prompt: Please let me know the test result on file for CC1=CC2/C=C(\C)CCC(O)C(=O)C(O)CC(=O)C23C(=O)NC(CC(C)C)C3C1C (configuration not stated) .
Completion: active

Prompt: For Cc1cc(Nc2nc(NC(C)c3ccc(F)cc3)c(C#N)cc2F)n[nH]1 (configuration not stated) , which call appears in the assay record?
Completion: active

Prompt: # lookup: test call for CC1=C(C(=O)O)/C(=C\CO[C@@H]2O[C@H](CO)[C@@H](O)[C@H](O)[C@H]2O)C(OC(=O)/C=C\c2ccc(O)cc2)C1 (some centres not stated)
Completion: inactive

----------
test: Viability qHTS for spleen associated tyrosine kinase inhibitor (SYKi) drug resistant MV4-11 cells (AID 1963824); conditions: SYKi-resistant MV4-11 viability, CellTiter-Glo, 72 h; series mostly up to 45 µM; further: nearly all actives have a fitted effect of over 35% in size
Results filed as inconclusive are left out. The source made the active and inactive calls. Calls come from the whole dose curve; as a rule, active = well fitted cell-killing curve with a large enough effect; inconclusive = small, poorly fitted or top-dose-only effect, or effect the other way; inactive = no such curve, though single readings can be large or run the other way.
Output constraint: value belongs to y (active), n (inactive)

Prompt: Look up the recorded call for COc1cc2nc(N3CCCN(C)CC3)nc(NC3CCN(Cc4ccccc4)CC3)c2cc1OC in this test.
Completion: y

Prompt: Could you check what this test reported for Cc1cnn(-c2ccccc2)c1NC(=O)COCc1ccccc1 ?
Completion: n

Prompt: Recorded test outcome, item C=C[C@H]1[C@H](O[C@@H]2O[C@H](CO)[C@@H](O)[C@H](OC(=O)/C=C/c3ccc(O)c(OC)c3)[C@H]2O)OC=C2C(=O)OCC[C@]21O
Completion: n

Prompt: Given O=C(Nc1ccc(-n2nc(C(F)(F)F)cc2C(F)(F)F)cc1)c1ccncc1F , state the outcome it received in this test.
Completion: y

Prompt: Identify the outcome logged in this assay for the molecule shown: Cc1cnc(Nc2ccc(N3CCN(C)CC3)cc2)nc1Nc1cccc(S(=O)(=O)NC(C)(C)C)c1
Completion: y

----------
assay: Cellular viability qHTS for adrenocortical cancer (ACC) cell line SW-13 (AID 1963989); conditions: SW-13 ACC cells viability, CellTiter-Glo, 48 h; active compounds read low;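 further: cells grown in serum-free medium with ITS supplement; on the % scale 0 is the no-effect control and ±100 the full control effect; nearly all actives have a fitted effect of over 65% in size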
Inconclusive results are not listed.
reported endpoint: activity (max response) (%)
Output spec: scalar in %, unitless text.

Form field activity (max response), entry CC(C(O)c1ccc(O)cc1)N1CCC(Cc2ccccc2)CC1 (stereo not given) : -9.39

Lookup result for O=C(OCc1ccccc1)c1ccccc1 ; measured activity (max response): -7.64

Noted for COC(=O)c1cc(Cl)c(NC(C)=O)cc1OC : its activity (max response) reads 11.7

Lab book: activity (max response) of CC[C@H](NC(=O)[C@H](CS(=O)(=O)CC1CC1)N[C@@H](c1ccc(F)cc1)C(F)(F)F)C(=O)C(=O)NC1CC1 noted as -11.3

Record CCOC(=O)C1=C[C@@H](OC(CC)CC)[C@H](NC(C)=O)[C@@H](N)C1 , field activity (max response): 7.32

So, CO[C@@]1(NC(=O)CSCC#N)C(=O)N2C(C(=O)O)=C(CSc3nnnn3C)CS[C@@H]21 ? Its activity (max response) was 9.84

response.value for CC(CCc1ccc(O)cc1)NCCc1ccc(O)c(O)c1 (stereo not given) (field: activity (max response)) = -9.68

Query CCCc1c(OCCCOc2ccc(OCC(=O)O)cc2)ccc(C(C)=O)c1O yields activity (max response) of -13.7

Sample CC1(C)CC[C@]2(C(=O)O)CC[C@]3(C)C(=CC[C@@H]4[C@@]5(C)C[C@@H](O)[C@H](O)C(C)(C)[C@@H]5CC[C@]43C)[C@@H]2C1 ; activity (max response) observed: -1.16

Notebook: Cc1ccc2nc(NC(=O)CSc3nc4c(c(=O)n3-c3ccccc3)SCC4)sc2c1 , activity (max response) read as -6.8

----------
experiment: Quantitative highthroughput screen to assess conditional lethalithy of SEM cells grown in RPMI1640 with unreated serum (RPMI+s) (AID 1963883); conditions: SEM B-ALL cells, CellTiter-Glo viability, 48 h; series mostly up to 45.8 µM; further: nearly all actives have a fitted effect of over 35% in size;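 on viability: 100% = DMSO wells and 0% = empty wells without cells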
Results filed as inconclusive are left out. Active and inactive are the calls of the source. Calls come from the whole dose curve; as a rule, active = well fitted cell-killing curve with a large enough effect; inconclusive = small, poorly fitted or top-dose-only effect, or effect the other way; inactive = no such curve, though single readings can be large or run the other way.
Write down the outcome that applies. Available outcomes: YES for active, NO for inactive

Prompt: GET /call?item= Cc1c(O)cccc1C(=O)N[C@@H](CSc1ccccc1)[C@H](O)CN1C[C@H]2CCCC[C@@H]2C[C@@H]1C(=O)NC(C)(C)C returns the recorded outcome of this test.
Completion: NO

Prompt: Entry C[C@H](NCc1ccc(OCc2cccc(F)c2)cc1)C(N)=O : call = ?
Completion: YES

Prompt: Please state the recorded outcome for this compound: c1cc(-c2sc(-c3ccncc3)c(-c3ccncc3)c2-c2ccncc2)ccn1
Completion: YES

Prompt: Can you look up the reported call for O=C(NC1CCNCC1)c1[nH]ncc1NC(=O)c1c(Cl)cccc1Cl for me?
Completion: YES

Prompt: Outcome logged for CCCCN1CCC(CNC(=O)c2c3n(c4ccccc24)CCCO3)CC1 in this assay:
Completion: NO

Prompt: Hi, do you know how CC1(C)[C@H](O[C@H]2O[C@H](C(=O)O)[C@@H](O)[C@H](O)[C@H]2O[C@@H]2O[C@H](C(=O)O)[C@@H](O)[C@H](O)[C@H]2O)CC[C@@]2(C)[C@H]1CC[C@]1(C)[C@H]2C(=O)C=C2[C@H]3C[C@@](C)(C(=O)O)CC[C@]3(C)CC[C@]21C came out in this test?
Completion: NO

Prompt: Test call for this compound, please: O=C(Nc1cn[nH]c1-c1nc2ccc(CN3CCOCC3)cc2[nH]1)NC1CC1
Completion: YES

Prompt: Hi, sorry to bother you, what did the test record for Cc1cc(Cl)ccc1OCCCC(=O)NO ?
Completion: YES

Prompt: Recorded test call requested for COc1cc(CCc2cc(NC(=O)c3ccc(N4C[C@@H](C)N[C@@H](C)C4)cc3)n[nH]2)cc(OC)c1
Completion: YES

Prompt: Identify the outcome logged in this assay for the compound shown: O=C(O)[C@H](CC(=O)N1C[C@@H]2CCCC[C@H]2C1)Cc1ccccc1
Completion: NO

Prompt: Tell me the assay call for O=C(O)CCc1ccc(NCc2cccc(Oc3ccccc3)c2)cc1 please.
Completion: NO

Prompt: Would you mind telling me which call this test gave COc1cc2c(cc1OC)CN(CCc1ccc(NC(=O)c3cccc4c(=O)c5cccc(OC)c5[nH]c34)cc1)CC2 ?
Completion: YES

Prompt: Could you kindly confirm the outcome this assay logged for CCN(C(=O)c1c(O)c2c(Cl)cccc2n(C)c1=O)c1ccccc1 ?
Completion: YES

Prompt: State the result this test recorded for COc1cc2ncnc(Nc3ccc(F)c(Cl)c3)c2cc1OCCCN1CCOCC1 .
Completion: YES

Prompt: Which outcome was assigned to CCCCc1nc2cc(C=CC(=O)NO)ccc2n1CCN(CC)CC in this test?
Completion: YES

Prompt: Hey, what did the test say about O=C1c2c(O)ccc(O)c2C(=O)c2c(NCCNCCO)ccc(NCCNCCO)c21 ?
Completion: YES

Prompt: Would you mind telling me which call this test gave Cc1ccc2c(c1)C(=O)[C@]1(O)CCN(c3ccccc3)C1=N2 ?
Completion: NO

Prompt: Please share the test call associated with COc1ccc(-c2cc3c(C)nc(N)nc3n(C3CCC(OCCO)CC3)c2=O)cn1 (centres undefined) .
Completion: YES

Prompt: Dear all, I need the recorded test outcome for CN(C)c1ccc(C(=O)NCCCCCCC(=O)NO)cc1 , thank you.
Completion: YES
